Biological target: CatSper (Homo sapiens, UniProt Q7RTX7+Q86XQ3+Q8NEC5+Q96P56)
Sequence (Q96P56 whole entry): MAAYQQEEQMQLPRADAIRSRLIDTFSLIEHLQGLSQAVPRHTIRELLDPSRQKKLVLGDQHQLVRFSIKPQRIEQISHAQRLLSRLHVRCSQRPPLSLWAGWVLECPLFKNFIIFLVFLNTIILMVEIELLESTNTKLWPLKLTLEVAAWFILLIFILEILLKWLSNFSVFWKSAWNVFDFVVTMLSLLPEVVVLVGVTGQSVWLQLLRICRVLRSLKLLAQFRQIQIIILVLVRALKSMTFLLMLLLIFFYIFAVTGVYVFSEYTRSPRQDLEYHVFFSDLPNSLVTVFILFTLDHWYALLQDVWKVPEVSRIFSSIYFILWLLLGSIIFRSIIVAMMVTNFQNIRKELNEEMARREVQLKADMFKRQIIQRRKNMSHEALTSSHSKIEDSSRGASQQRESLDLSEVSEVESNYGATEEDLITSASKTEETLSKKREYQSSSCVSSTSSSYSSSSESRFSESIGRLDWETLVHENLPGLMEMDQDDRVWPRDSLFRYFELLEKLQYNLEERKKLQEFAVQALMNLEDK
Sequence (Q8NEC5 whole entry): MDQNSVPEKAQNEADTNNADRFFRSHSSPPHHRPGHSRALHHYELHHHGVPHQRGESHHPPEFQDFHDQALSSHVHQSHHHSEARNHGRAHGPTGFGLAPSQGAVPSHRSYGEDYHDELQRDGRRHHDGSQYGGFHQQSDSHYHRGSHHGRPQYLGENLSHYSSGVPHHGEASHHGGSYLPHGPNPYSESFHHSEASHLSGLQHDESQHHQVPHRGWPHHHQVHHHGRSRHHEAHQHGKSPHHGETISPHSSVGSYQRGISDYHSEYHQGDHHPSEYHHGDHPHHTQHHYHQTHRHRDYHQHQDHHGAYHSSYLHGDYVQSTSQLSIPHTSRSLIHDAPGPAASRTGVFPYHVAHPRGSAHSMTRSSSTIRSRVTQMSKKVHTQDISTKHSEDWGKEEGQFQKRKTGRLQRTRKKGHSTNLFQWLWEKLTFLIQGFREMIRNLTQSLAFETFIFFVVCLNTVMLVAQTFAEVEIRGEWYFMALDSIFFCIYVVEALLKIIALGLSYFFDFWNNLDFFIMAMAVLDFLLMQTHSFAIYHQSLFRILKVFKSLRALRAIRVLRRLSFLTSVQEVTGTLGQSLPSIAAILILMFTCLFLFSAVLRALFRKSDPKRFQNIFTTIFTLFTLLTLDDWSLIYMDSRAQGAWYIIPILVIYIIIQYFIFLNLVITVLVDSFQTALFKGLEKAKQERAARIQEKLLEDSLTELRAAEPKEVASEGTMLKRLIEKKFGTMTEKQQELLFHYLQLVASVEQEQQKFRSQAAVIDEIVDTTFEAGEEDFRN
Sequence (Q86XQ3 whole entry): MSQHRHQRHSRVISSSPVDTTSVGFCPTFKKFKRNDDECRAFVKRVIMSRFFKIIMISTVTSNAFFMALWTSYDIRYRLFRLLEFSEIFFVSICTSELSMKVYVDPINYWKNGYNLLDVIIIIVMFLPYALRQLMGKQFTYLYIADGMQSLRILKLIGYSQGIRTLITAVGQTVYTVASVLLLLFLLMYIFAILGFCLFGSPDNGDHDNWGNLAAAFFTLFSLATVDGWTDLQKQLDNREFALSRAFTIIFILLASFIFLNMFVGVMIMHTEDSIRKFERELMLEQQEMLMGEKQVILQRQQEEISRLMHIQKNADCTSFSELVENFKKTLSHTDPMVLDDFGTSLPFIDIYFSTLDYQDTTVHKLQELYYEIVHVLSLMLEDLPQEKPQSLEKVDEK
Sequence (Q7RTX7 whole entry): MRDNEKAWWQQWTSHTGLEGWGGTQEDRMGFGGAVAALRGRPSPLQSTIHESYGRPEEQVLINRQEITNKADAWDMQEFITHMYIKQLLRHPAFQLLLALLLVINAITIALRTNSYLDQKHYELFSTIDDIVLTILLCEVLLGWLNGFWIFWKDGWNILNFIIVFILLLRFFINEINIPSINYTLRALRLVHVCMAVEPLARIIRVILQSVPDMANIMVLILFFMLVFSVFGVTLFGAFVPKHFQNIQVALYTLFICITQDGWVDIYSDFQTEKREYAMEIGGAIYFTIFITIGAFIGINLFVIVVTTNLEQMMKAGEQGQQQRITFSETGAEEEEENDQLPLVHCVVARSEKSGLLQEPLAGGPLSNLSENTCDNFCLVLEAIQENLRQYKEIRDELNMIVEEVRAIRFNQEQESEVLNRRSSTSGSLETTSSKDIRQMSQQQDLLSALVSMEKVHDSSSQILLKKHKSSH
Test: whole-cell patch clamp of human sperm
assay-endpoint: IC50 (µM)
Hi! Could you send only the number? It should be in µM, unit omitted.

Recorded result, CN[C@H]1CC[C@@H](c2ccc(Cl)c(Cl)c2)c2ccccc21 , IC50: 4.62
